Data provenance: paper PMC10447463

- assay notes: Turbidity, derived count rate of scattered light
- Type: physicochemical
- assay conditions: log10 of derived count rate of scattered light (turbidity)
// map Log10 Count Rate onto a label; ranges group A: < 2; group B: ≥ 2 and < 3; group C: ≥ 3

{"substance": "KFKFQFW", "discrete label": "group B"}
{"substance": "KIKIQINMWWQ", "discrete label": "group C"}
{"substance": "KIKIQIW", "discrete label": "group B"}
{"substance": "KIKIQIMQWN", "discrete label": "group C"}
{"substance": "KLKLQLL", "discrete label": "group A"}
{"substance": "KIKIQINMWQRGD", "discrete label": "group C"}
{"substance": "EFEFQF", "discrete label": "group B"}
{"substance": "KWKWQW", "discrete label": "group C"}
{"substance": "IKVAVKIKIQINM", "discrete label": "group C"}
{"substance": "RGDKIKIQINMWQ", "discrete label": "group C"}
{"substance": "KLKLKLQL", "discrete label": "group A"}
{"substance": "CKIKIQINM", "discrete label": "group C"}
{"substance": "KYKYQY", "discrete label": "group A"}
{"substance": "KIKQII", "discrete label": "group B"}
{"substance": "RGDKIKIQI", "discrete label": "group B"}
{"substance": "KIKIQIMWNQ", "discrete label": "group C"}
{"substance": "KFKQFFINMWQ", "discrete label": "group C"}
{"substance": "ILKNLSRSRKIKIQINMWQ", "discrete label": "group B"}
{"substance": "KFKFQFFF", "discrete label": "group C"}
{"substance": "CEIEIQINM", "discrete label": "group A"}
